B1: Storkhead-box protein 2, residues 64 to 141; numbered along this chain, Q9P2F5 (parent)
chain: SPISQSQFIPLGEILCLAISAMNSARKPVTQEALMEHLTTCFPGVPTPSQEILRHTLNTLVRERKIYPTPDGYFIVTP

# Variants of: B1
# PROTOCOL NOTES: abundance fitness (aPCA) (normalised: wild type 0, dead -1); higher = more abundant; growth selection in yeast, the domain comes from the species named
# ASSAY CONTEXT: Homo sapiens
Measured abundance fitness by item
Hey, just send me the number, nothing else.

Sample records with abundance fitness:
SPISQSQFQPLGEILCLAISAMNSARKPVTQEALMEHLTTCFPGVPTPSQEILRHTLNTLVRERKIYPTPDGYFIVTP    0.101
SPISQSQFIPLGEILCLAISAMNSARKPVTQEASMEHLTTCFPGVPTPSQEILRHTLNTLVRERKIYPTPDGYFIVTP    -0.869
SPISQSQFIPLGEILCLAISAMNSARKPVTQEALMEHLTTCFPGVPTPSPEILRHTLNTLVRERKIYPTPDGYFIVTP    -0.055
SPISQSQFIPLGEILCLAISAMNSARKPVTQEALMEHLTTCFPGVPTPSQEILRHTLNTLERERKIYPTPDGYFIVTP    -0.028
SPISQSQFIPLGEILCLAISAMNSARKPVTQEALMEHLTTCFPGVPTPSQEILRHTLNTLVREVKIYPTPDGYFIVTP    -0.22
SPISQSQFIPLGEILCLAITAMNSARKPVTQEALMEHLTTCFPGVPTPSQEILRHTLNTLVRERKIYPTPDGYFIVTP    -0.006
SPISQSQFIPLGEILCLAISAMNSARKPVTQEALMEHLTTCFPGVPTPSQEYLRHTLNTLVRERKIYPTPDGYFIVTP    0.171
SPISQSQFIPLGEILCLAISAMNSARKPVTQEALMEHLTTCFPGVPTPSQEILRHTLNTLVRELKIYPTPDGYFIVTP    -0.124

get_value(item= SPISQSQFIPLGEILCLAISAMNSARKPVTQEALMEHLTTCFPGVPTPSQEILRHTLNTLVRERKYYPTPDGYFIVTP , readout=abundance fitness) returns -0.971

Noted for SPISQSQFIPLGEILCLAISAMNSARKPVTQEALMEHLTTCFPGVPIPSQEILRHTLNTLVRERKIYPTPDGYFIVTP : its abundance fitness reads 0.11

# abundance fitness (variant: SAISQSQFIPLGEILCLAISAMNSARKPVTQEALMEHLTTCFPGVPTPSQEILRHTLNTLVRERKIYPTPDGYFIVTP ) is -0.084

Value of abundance fitness reported for the variant SPISQSQFIPLGEILCLAISAMNSARKPVTQEALMEHKTTCFPGVPTPSQEILRHTLNTLVRERKIYPTPDGYFIVTP is -0.608

GET /value?item= SPISQSQFIPLGEILCEAISAMNSARKPVTQEALMEHLTTCFPGVPTPSQEILRHTLNTLVRERKIYPTPDGYFIVTP &field=abundance fitness returns 0.039

Lab book: abundance fitness of SPISQSQFIPLGEILCLAISAMNSARKPVTQEALMEHLTTCFQGVPTPSQEILRHTLNTLVRERKIYPTPDGYFIVTP noted as -0.057

abundance fitness for SPISQSQFIPLGEILCLAISAMNSARKWVTQEALMEHLTTCFPGVPTPSQEILRHTLNTLVRERKIYPTPDGYFIVTP is -0.214
